Test: Tmax in rat at 5 mg/kg, po
Format: ADME, organism-based
Conditions: in vivo
I'd be grateful if you could share measured Tmax for these entries.
State just the number; it will be interpreted in h.

Need Tmax of "CNC(=O)c1c(-c2ccc(F)cc2)oc2cc(N(C)S(C)(=O)=O)c(-c3ccc4c(n3)-c3cc5c(F)cccc5n3C4)cc12" , thanks. 3

Repeat with "CNC(=O)c1c(-c2ccc(F)cc2)oc2cc(N(C)S(C)(=O)=O)c(-c3ccc4c(n3)-c3cc5c(F)cccc5n3CC4)cc12" 4

Ok, now "CNC(=O)c1c(-c2ccc(F)cc2)oc2cc(N(C)S(C)(=O)=O)c(-c3cc4n(c(=O)c3)CCn3c-4cc4c(F)cccc43)cc12" 1

* * *

Experiment: AUC in rat at 100 mg/kg, po using conventional sample
Assay type: ADME, organism-based
Settings: in vivo
Readout label: AUC (µM·h)
Express it in µM·h; write the number only.

Record request: AUC value, item "CNC(=O)c1c(-c2ccc(F)cc2)oc2cc(N(C)S(C)(=O)=O)c(-c3ccc4ncn5c6cccc(F)c6cc5c4n3)cc12" 0.67

* * *

Answer each item with its documented pIC50.
Biological target: Voltage-dependent L-type calcium channel subunit alpha-1C (Homo sapiens)
Sequence (Q13936 whole entry): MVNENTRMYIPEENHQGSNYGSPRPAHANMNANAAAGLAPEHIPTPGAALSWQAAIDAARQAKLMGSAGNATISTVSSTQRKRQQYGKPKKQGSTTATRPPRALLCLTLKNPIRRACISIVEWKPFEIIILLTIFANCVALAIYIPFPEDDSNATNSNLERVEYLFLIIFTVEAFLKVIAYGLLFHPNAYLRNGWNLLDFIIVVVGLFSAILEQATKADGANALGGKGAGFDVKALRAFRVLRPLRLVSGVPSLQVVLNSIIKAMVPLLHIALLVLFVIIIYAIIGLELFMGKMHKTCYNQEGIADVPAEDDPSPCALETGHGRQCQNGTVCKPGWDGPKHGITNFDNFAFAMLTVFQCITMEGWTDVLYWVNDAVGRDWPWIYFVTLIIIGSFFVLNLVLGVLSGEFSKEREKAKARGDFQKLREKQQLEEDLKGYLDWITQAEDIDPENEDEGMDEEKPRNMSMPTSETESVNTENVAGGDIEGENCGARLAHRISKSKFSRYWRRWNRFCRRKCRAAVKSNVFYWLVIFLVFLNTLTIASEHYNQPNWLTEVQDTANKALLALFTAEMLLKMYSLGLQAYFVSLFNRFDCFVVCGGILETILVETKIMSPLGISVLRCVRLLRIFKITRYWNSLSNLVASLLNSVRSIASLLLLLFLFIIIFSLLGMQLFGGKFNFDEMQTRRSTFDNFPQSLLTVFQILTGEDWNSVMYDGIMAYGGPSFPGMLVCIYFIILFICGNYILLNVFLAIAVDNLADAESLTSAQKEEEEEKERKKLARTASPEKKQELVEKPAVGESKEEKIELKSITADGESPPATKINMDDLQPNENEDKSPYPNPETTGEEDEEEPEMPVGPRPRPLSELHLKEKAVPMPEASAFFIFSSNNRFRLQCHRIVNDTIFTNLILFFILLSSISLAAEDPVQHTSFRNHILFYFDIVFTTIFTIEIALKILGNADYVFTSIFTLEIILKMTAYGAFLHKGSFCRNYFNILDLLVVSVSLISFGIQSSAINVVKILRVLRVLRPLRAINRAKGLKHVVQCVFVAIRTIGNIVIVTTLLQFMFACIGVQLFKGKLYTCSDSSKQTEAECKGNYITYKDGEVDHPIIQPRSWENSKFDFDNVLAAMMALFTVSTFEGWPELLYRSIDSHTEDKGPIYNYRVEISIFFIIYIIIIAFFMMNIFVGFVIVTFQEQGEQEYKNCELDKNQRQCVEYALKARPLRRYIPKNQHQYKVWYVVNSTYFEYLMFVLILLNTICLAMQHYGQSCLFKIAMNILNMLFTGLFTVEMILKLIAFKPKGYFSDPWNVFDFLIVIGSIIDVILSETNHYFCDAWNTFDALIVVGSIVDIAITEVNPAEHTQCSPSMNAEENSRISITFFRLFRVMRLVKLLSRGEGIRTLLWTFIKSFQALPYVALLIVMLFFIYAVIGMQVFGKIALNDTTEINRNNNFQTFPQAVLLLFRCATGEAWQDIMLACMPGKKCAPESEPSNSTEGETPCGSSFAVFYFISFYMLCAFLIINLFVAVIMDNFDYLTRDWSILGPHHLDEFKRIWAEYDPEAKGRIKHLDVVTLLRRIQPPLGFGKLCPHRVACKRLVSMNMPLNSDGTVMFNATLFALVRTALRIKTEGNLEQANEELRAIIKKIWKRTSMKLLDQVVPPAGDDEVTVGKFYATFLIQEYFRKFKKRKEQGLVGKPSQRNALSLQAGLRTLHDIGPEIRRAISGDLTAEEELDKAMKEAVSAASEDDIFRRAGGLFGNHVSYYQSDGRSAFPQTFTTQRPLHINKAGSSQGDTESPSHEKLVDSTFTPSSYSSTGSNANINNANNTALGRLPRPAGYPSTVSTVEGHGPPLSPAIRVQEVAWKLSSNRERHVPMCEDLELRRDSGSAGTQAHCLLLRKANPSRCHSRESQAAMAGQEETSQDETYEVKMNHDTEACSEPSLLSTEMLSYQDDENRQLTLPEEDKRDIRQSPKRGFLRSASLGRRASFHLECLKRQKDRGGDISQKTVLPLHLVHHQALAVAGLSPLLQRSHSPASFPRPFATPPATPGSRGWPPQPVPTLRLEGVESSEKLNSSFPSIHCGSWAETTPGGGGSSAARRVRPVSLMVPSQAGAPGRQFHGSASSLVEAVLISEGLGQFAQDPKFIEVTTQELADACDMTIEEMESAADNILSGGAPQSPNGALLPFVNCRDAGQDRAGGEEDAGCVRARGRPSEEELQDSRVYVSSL
Assay: Inhibition of Cav1.2 (unknown origin)
Notebook: values listed as pIC50 are -log10 of the concentration (mol/L).

Returns the measured pIC50 for the input molecule. Input: "CNC(=O)c1c(-c2ccc(F)cc2)oc2cc(N(C)S(C)(=O)=O)c(-c3ccc4ccn5c6cccc(F)c6cc5c4n3)cc12" 4.74

Let us now turn to "CNC(=O)c1c(-c2ccc(F)cc2)oc2cc(N(C)S(C)(=O)=O)c(-c3ccc4c(n3)-c3cc5c(F)cccc5n3CC4)cc12" 4.74

Please do the same for "CNC(=O)c1c(-c2ccc(F)cc2)oc2cc(N(C)S(C)(=O)=O)c(-c3ccc4ncn5c6cccc(F)c6cc5c4n3)cc12" as well. 4.66

* * *

Would you mind telling me the reported clearance of each entry?
Assay: Clearance in rat at 1 mg/kg, iv
Type: ADME, organism-based
Conditions: in vivo

Please look up its clearance: "CNC(=O)c1c(-c2ccc(F)cc2)oc2cc(N(C)S(C)(=O)=O)c(-c3cc4n(c(=O)c3)CCn3c-4cc4c(F)cccc43)cc12" 17 mL/min/kg

Now the compound "CNC(=O)c1c(-c2ccc(F)cc2)oc2cc(N(C)S(C)(=O)=O)c(-c3ccc4c(n3)-c3cc5c(F)cccc5n3CC4)cc12" 2.3 mL/min/kg

What would you report for "CNC(=O)c1c(-c2ccc(F)cc2)oc2cc(N(C)S(C)(=O)=O)c(-c3ccc4c(n3)-c3cc5c(F)cccc5n3CN4)cc12" ? 16 mL/min/kg

// next record "CNC(=O)c1c(-c2ccc(F)cc2)oc2cc(N(C)S(C)(=O)=O)c(-c3ccc4ccn5c6cccc(F)c6cc5c4n3)cc12" 4.2 mL/min/kg

Okay, and "CNC(=O)c1c(-c2ccc(F)cc2)oc2cc(N(C)S(C)(=O)=O)c(-c3ccc4ncn5c6cccc(F)c6cc5c4n3)cc12" ? 8.5 mL/min/kg

Also, "CNC(=O)c1c(-c2ccc(F)cc2)oc2cc(N(C)S(C)(=O)=O)c(-c3ccc4c(n3)-c3cc5c(F)cccc5n3C4)cc12" please. 5.2 mL/min/kg

* * *

For each entry below, report its half-life value.
Assay: Half life in monkey at 1 mg/kg, iv
Type: ADME, organism-based, Macaca mulatta
Details: rhesus monkey, in vivo
Answer with a number only, understood to be in h.

Requested field: half-life. Item: "CNC(=O)c1c(-c2ccc(F)cc2)oc2cc(N(C)S(C)(=O)=O)c(-c3ccc4ncn5c6cccc(F)c6cc5c4n3)cc12" 6.1

Now try "CNC(=O)c1c(-c2ccc(F)cc2)oc2cc(N(C)S(C)(=O)=O)c(-c3ccc4c(n3)-c3cc5c(F)cccc5n3CC4)cc12" . 5.9

// query: "CNC(=O)c1c(-c2ccc(F)cc2)oc2cc(N(C)S(C)(=O)=O)c(-c3ccc4c(n3)-c3cc5c(F)cccc5n3CN4)cc12" 3.9

Request: "CNC(=O)c1c(-c2ccc(F)cc2)oc2cc(N(C)S(C)(=O)=O)c(-c3ccc4ccn5c6cccc(F)c6cc5c4n3)cc12" 6.6

* * *

Assay: Half life in dog at 0.5 mg/kg, iv
Assay type: ADME, organism-based, Canis lupus familiaris
Details: in vivo
Provide the recorded half-life for the entries that follow.
Response body: numeric value in h, unit text excluded.

Suppose we examine the compound "CNC(=O)c1c(-c2ccc(F)cc2)oc2cc(N(C)S(C)(=O)=O)c(-c3ccc4ccn5c6cccc(F)c6cc5c4n3)cc12" ; what half-life value has been reported? 22

"CNC(=O)c1c(-c2ccc(F)cc2)oc2cc(N(C)S(C)(=O)=O)c(-c3ccc4ncn5c6cccc(F)c6cc5c4n3)cc12" ? 17

And what about the compound "CNC(=O)c1c(-c2ccc(F)cc2)oc2cc(N(C)S(C)(=O)=O)c(-c3ccc4c(n3)-c3cc5c(F)cccc5n3CN4)cc12" ? 4

Same question for "CNC(=O)c1c(-c2ccc(F)cc2)oc2cc(N(C)S(C)(=O)=O)c(-c3ccc4c(n3)-c3cc5c(F)cccc5n3CC4)cc12" please. 13

* * *

Test: Cmax in dog at 2 mg/kg, po
Format: ADME, organism-based, Canis lupus familiaris
Set-up: dose 2 mg/kg, route oral
Settings: in vivo
Readout label: Cmax (nM)
Write the value in nM as a bare number.

Which Cmax value is on record for "CNC(=O)c1c(-c2ccc(F)cc2)oc2cc(N(C)S(C)(=O)=O)c(-c3ccc4ncn5c6cccc(F)c6cc5c4n3)cc12" ? 840

Repeat for the following compound: "CNC(=O)c1c(-c2ccc(F)cc2)oc2cc(N(C)S(C)(=O)=O)c(-c3ccc4c(n3)-c3cc5c(F)cccc5n3CN4)cc12" 410

Then "CNC(=O)c1c(-c2ccc(F)cc2)oc2cc(N(C)S(C)(=O)=O)c(-c3ccc4c(n3)-c3cc5c(F)cccc5n3CC4)cc12" ? 1300

Next entry: "CNC(=O)c1c(-c2ccc(F)cc2)oc2cc(N(C)S(C)(=O)=O)c(-c3ccc4ccn5c6cccc(F)c6cc5c4n3)cc12" 1000

* * *

Assay: AUC in monkey at 3 mg/kg, po
Type: ADME, organism-based, Macaca mulatta
Settings: rhesus monkey, in vivo
Readout label: AUC
Answer format: number, then unit.

I am curious: what AUC value has been reported for "CNC(=O)c1c(-c2ccc(F)cc2)oc2cc(N(C)S(C)(=O)=O)c(-c3ccc4ccn5c6cccc(F)c6cc5c4n3)cc12" ? 3.5 µM·h

Same for "CNC(=O)c1c(-c2ccc(F)cc2)oc2cc(N(C)S(C)(=O)=O)c(-c3ccc4c(n3)-c3cc5c(F)cccc5n3CN4)cc12" 1 µM·h

Moving on to "CNC(=O)c1c(-c2ccc(F)cc2)oc2cc(N(C)S(C)(=O)=O)c(-c3ccc4ncn5c6cccc(F)c6cc5c4n3)cc12" 3.4 µM·h

Next up: "CNC(=O)c1c(-c2ccc(F)cc2)oc2cc(N(C)S(C)(=O)=O)c(-c3ccc4c(n3)-c3cc5c(F)cccc5n3CC4)cc12" 1.7 µM·h

* * *

Assay: Cmax in rat at 100 mg/kg, po using spray dry sample
Assay type: ADME, organism-based
Set-up: dose 100 mg/kg, route oral
Details: in vivo
For each entry below, report its Cmax value.
Answer in µM, number only, no unit symbol.

Query (molecule): "CNC(=O)c1c(-c2ccc(F)cc2)oc2cc(N(C)S(C)(=O)=O)c(-c3ccc4ncn5c6cccc(F)c6cc5c4n3)cc12" ; field requested: Cmax 8.5

Entry to check: "CNC(=O)c1c(-c2ccc(F)cc2)oc2cc(N(C)S(C)(=O)=O)c(-c3ccc4c(n3)-c3cc5c(F)cccc5n3CC4)cc12" 8.2

Thanks! And CNC(=O)c1c(-c2ccc(F)cc2)oc2cc(N(C)S(C)(=O)=O)c(-c3ccc4c(n3)-c3cc5c(F)cccc5n3CO4)cc12 [MK-8876] ? 6.7

* * *

Reported pIC50, Cytochrome P450 3A4 (Homo sapiens, UniProt P08684).
pIC50: −log10 of the molar value.

If you can, please state the reported pIC50 value of "CNC(=O)c1c(-c2ccc(F)cc2)oc2cc(N(C)S(C)(=O)=O)c(-c3ccc4ncn5c6cccc(F)c6cc5c4n3)cc12" . < 4.30

Check "CNC(=O)c1c(-c2ccc(F)cc2)oc2cc(N(C)S(C)(=O)=O)c(-c3ccc4ccn5c6cccc(F)c6cc5c4n3)cc12" too. < 4.30

* * *

Experiment: Drug concentration in rat plasma at 5 mg/kg, po after 24 hrs
Type: ADME, organism-based
Readout label: concentration at 24 h
Answer with the value and then the unit.

Data request, read-out concentration at 24 h, for "CNC(=O)c1c(-c2ccc(F)cc2)oc2cc(N(C)S(C)(=O)=O)c(-c3ccc4c(n3)-c3cc5c(F)cccc5n3CN4)cc12" 2.2 nM

Now consider "CNC(=O)c1c(-c2ccc(F)cc2)oc2cc(N(C)S(C)(=O)=O)c(-c3ccc4ccn5c6cccc(F)c6cc5c4n3)cc12" . 114 nM

Again, but for "CNC(=O)c1c(-c2ccc(F)cc2)oc2cc(N(C)S(C)(=O)=O)c(-c3ccc4c(n3)-c3cc5c(F)cccc5n3C4)cc12" 10 nM

Lookup "CNC(=O)c1c(-c2ccc(F)cc2)oc2cc(N(C)S(C)(=O)=O)c(-c3ccc4c(n3)-c3cc5c(F)cccc5n3CC4)cc12" 69 nM

Entry "CNC(=O)c1c(-c2ccc(F)cc2)oc2cc(N(C)S(C)(=O)=O)c(-c3ccc4ncn5c6cccc(F)c6cc5c4n3)cc12" please 110 nM
